# Test system: SK-BR-3
# assay.details: Antiproliferative activity against human SKBR3 cells assessed as reduction in cell growth by SRB assay
# Type: functional, cell-based
Square brackets hold non-standard residues; d marks the D form. Peptide text beside a SMILES is read from it. * marks the point of attachment. NH((S)CH(Me)CH2NHC2H4OH) = C[C@@H](CNCCO)N*; Gly(octyl) = CCCCCCCC[C@H](N)C(=O)O; Hyp = O=C(O)[C@@H]1C[C@@H](O)CN1; Cha = N[C@@H](CC1CCCCC1)C(=O)O; Alaol = C[C@@H](CO)N*; Aib = CC(C)(N)C(=O)O; Butyryl = CCCC(=O)*; βAla = NCCC(=O)O
assay.readout: IC50 (nM)
Give just the number in nM; leave the unit off.

Guide cases for IC50, answers given:
Dear colleague, please send me the reported IC50 for CCCCCCCC[C@H](NC(=O)C(C)(C)NC(=O)C(C)(C)NC(=O)[C@H](CC1CCCCC1)NC(=O)[C@@H]1C[C@@H](O)CN1C(=O)CCC)C(=O)N[C@@H](CC(C)C)C(=O)NC(C)(C)C(=O)N[C@@H](CC(C)C)C(=O)NCCC(=O)N[C@@H](C)CNCCO (Butyryl-[Hyp][Cha][Aib][Aib][Gly(octyl)]L[Aib]L[βAla]-{NH((S)CH(Me)CH2NHC2H4OH)}) when you can.
124

Dear colleague, please send me the reported IC50 for CCCCCCCC[C@H](NC(=O)C(C)(C)NC(=O)C(C)(C)NC(=O)[C@H](CC1CCCCC1)NC(=O)[C@@H]1CCCN1C(C)=O)C(=O)N[C@@H](CC(C)C)C(=O)NC(C)(C)C(=O)N[C@@H](CC(C)C)C(=O)NCCC(=O)N[C@@H](C)CNCCO (Ac-P[Cha][Aib][Aib][Gly(octyl)]L[Aib]L[βAla]-{NH((S)CH(Me)CH2NHC2H4OH)}) when you can.
52

Continuing:
Dear colleague, please send me the reported IC50 for CCCCCCCC[C@H](NC(=O)C(C)(C)NC(=O)C(C)(C)NC(=O)[C@H](CC1CCCCC1)NC(=O)[C@@H]1CCCN1C(=O)CCC)C(=O)N[C@@H](CC(C)C)C(=O)NC(C)(C)C(=O)N[C@@H](CC(C)C)C(=O)NCCC(=O)N[C@@H](C)CO (Butyryl-P[Cha][Aib][Aib][Gly(octyl)]L[Aib]L[βAla]-Alaol) when you can.
509
